Origin of measurements: the nanobody polyreactivity screen of Harvey et al. (2022)

Test: yeast display, Sf9 membrane polyspecificity reagent, FACS + sequencing; frameworks hold sequencing errors
readout_name: polyreactivity (PSR sort gate)

QVQLVESGGGLVQAGGSLRLSCAASGRTFAYNAMGWYRQAPGKERELVAANTDSDGNTNYADSVKRRFTISRDNAKNTVYVLLNSLIPEDTAVDYCAADYIILVHVTRGFGYEYWGQGTQVTVSS
low polyreactivity
QVQLVESGGGLVQAGGSLRLSCAASGSTFKVNAMGWYRQAAGKEREFVAAITKNGGRTYYADSVKGRFTISRDYAKNTVYLQMNSLKPEDTAVYYCAARLYLPIIVVDLYGYDYWGQGTQVTVSS
low polyreactivity

----------
Experiment: yeast display, Sf9 membrane polyspecificity reagent, FACS + sequencing; frameworks hold sequencing errors
readout_name: polyreactivity (PSR sort gate)

As a guide, the following entries are already answered.
QVQLVESGGGLVQAGGSLRLSCAASGIIFWQYAMGWYRQAPGKERELVAAISRSGGNTYYADSVKGRFTISRDNAKNTVYLQMNSLKPEDTAVYYCNARRYLRGYGYGYWGQGTQVTVSS
high polyreactivity
QVQLVESGGGLVQAGGSLRLSCAASGRIFYRYAMGWYRQAPGKERELVAAITQSGGSTFYADSVKGRFTISRDNAKNTVYLQMNSLKPEDTAVYYCNRRGPGFYSTRFNYWGQGTQVTVSS
high polyreactivity
QVQLVESGGGLVQAGGSLRLSCAASGIIFYYYAMGWYRHAPGKERELVAAISTSGTRTFYADSVKGRFTISRDNAKNTVYLQMNCLKPEDTAVYYCAARIYKPQRSSSLYRTSGYWGQGTQVTVSS
high polyreactivity
QVQLLESGGGLVQAGGSLRLTCAASGSIFFYYAMAWYRQAPGKEMEFVAGITYSGGITYYADSVKGRFTISRDNEKNTVYLQMNSLKPEDTAVYYCDYGGGVYQYGYWGQGTLVTVSS
low polyreactivity

Exercise: Entry QVQLVVSGGGLVQEGGSLRLSCAASGGLFSLYAMGWYRQAPGKEREFVSAISFSGASTYYADSVKGRFTISRDNAKNTVSLQKNSLKPEDTSVYYCAAYWDAVGRRYTRLYYWGQGTQVTVSS : reported polyreactivity (PSR sort gate) = ?
Solution: low polyreactivity
